- Experiment summary: A CellTox Green Cytotoxicity Assay to monitor cytotoxicity in HepG2 cells - 24 hour (AID 1224878); also: nearly all actives have a fitted effect of over 45% in size; as to Cytotoxicity: % is scaled to controls: 0 for no effect and ±100 for the full control effect
- Experimental context: CellTox Green fluorescence; series mostly up to 76.8 µM
Inconclusive results are not listed. Activity calls are given as the source filed them. Calls follow the shape of the dose curve; as a rule, active = well fitted activation curve with a large enough effect in the repeat runs; inconclusive = weak or mixed curves; inactive = flat fitted curve, though single readings scatter.
Classes to choose from: active, inactive

Below are worked cases with known answers.
Molecule	Answer label
CC[N+]1(CCOC(=O)C(O)(c2ccccc2)c2ccccc2)CCCCC1	inactive
O=S(=O)(c1ccccc1)c1ccccc1	inactive
CCOC(=O)C1OC1(C)c1ccccc1 (stereo not drawn)	inactive
CC(C)(C#N)C(C)(C)C#N	inactive
OC[P+](CO)(CO)CO	inactive
C=C(Cl)Cl	inactive
O=C1CC[C@@]2(O)[C@H]3Cc4ccc(O)c5c4[C@@]2(CCN3CC2CC2)[C@H]1O5	inactive
CC(=O)NNc1ccccc1	inactive
O=C(O)c1ccc(=O)[nH]c1	inactive
CCOc1cccc(C2(N3CCN(c4ccccc4)CC3)CCC(C)CC2)c1 (stereo not drawn)	inactive

Request: Recorded call for C[C@@H]1C[C@@H]([C@H](O)CC2CC(=O)NC(=O)C2)C(=O)[C@@H](C)C1 ?
Response: inactive

Request: Hi, do you know how CCC(C)(C)c1ccc(O)c(C(C)(C)CC)c1 came out in this test?
Response: active

Request: Name the outcome recorded for COc1ccccc1N1CCNCC1 in the assay.
Response: inactive

* * *

- System under test: Retinoic acid receptor RXR-alpha (Homo sapiens)
- Experiment summary: qHTS assay to identify small molecule agonists of the RXR signaling pathway (AID 1159527); also: % is scaled to controls: 0 for no effect and ±100 for the full control effect; nearly all actives have a fitted effect of over 35% in size
- Experimental context: HEK293T RXRa-UAS-bla, beta-lactamase ratio, 16 h; series mostly up to 76.8 µM
Results filed as inconclusive are left out. Calls of active or inactive are those of the source. Calls come from the whole dose curve.
I would appreciate it if you answered using one of these outcomes: T for active, F for inactive

Molecule	Answer label
C=CCN1C[C@H](C)N([C@H](c2ccc(C(=O)N(CC)CC)cc2)c2cccc(OC)c2)C[C@H]1C	F

Request: Could you please tell me the result logged for C1CS1 in this assay?
Response: F

Request: Which outcome was assigned to COc1ccc(C(O)(c2cncnc2)C2CC2)cc1 (stereo not given) in this test?
Response: F

Request: Hi team, can someone confirm the assay call for CC(=O)OC(c1ccccc1)C(Cl)(Cl)Cl (stereo not given) ?
Response: F

Request: In this assay, the call recorded for CCC(C)(C)O was what?
Response: F

Request: What classification did COc1cc(C[C@@H](C)N)c(OC)cc1Br end up with in this test?
Response: F

Request: Please share the test call associated with CN(C)N .
Response: F

* * *

- System under test: Acetylcholinesterase (Homo sapiens) (UniProt P22303)
- Sequence (P22303 whole entry, looked up): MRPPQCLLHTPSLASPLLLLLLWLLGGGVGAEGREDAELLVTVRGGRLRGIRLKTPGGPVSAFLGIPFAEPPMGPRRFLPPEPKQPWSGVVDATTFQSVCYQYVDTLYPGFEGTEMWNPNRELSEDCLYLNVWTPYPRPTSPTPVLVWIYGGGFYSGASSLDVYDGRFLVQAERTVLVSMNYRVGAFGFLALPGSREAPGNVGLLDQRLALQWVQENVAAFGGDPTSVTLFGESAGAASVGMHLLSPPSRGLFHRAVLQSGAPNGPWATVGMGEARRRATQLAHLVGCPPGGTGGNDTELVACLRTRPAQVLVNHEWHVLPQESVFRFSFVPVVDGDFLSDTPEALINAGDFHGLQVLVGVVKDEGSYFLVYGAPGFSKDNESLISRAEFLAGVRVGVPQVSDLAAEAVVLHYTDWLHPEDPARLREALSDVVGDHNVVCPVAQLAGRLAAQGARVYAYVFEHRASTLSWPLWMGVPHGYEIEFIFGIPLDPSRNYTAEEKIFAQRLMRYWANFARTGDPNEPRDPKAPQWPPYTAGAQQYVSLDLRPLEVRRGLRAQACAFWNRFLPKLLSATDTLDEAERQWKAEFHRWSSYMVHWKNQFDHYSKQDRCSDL
- Experiment summary: Acetylcholinesterase (AChE) small molecule antagonists: enzyme-based qHTS assay (AID 1347397); also: nearly all actives have a fitted effect of over 55% in size
- Experimental context: AChE enzyme activity inhibition; series mostly up to 115 µM
Active and inactive are the calls of the source. The call rests on the fitted dose curve.
# output must be one of active, inactive

O=C(Cl)OCCOCCOC(=O)Cl inactive
Cc1nnc(-c2ccccc2)c(=O)n1N inactive
O=C(Cc1ccccc1)c1ccccc1 inactive
C[C@H]1[C@@H]2Cc3ccc(O)cc3[C@@]1(C)CCN2C active
O=C(O)C(F)(F)C(F)(F)C(F)(F)C(F)(F)C(F)(F)C(F)(F)C(F)(F)C(F)(F)F inactive
N#CC1(N=NC2(C#N)CCCCC2)CCCCC1 inactive

Then there is this compound:
Request: Test call, this compound: CNC(=O)Oc1cccc(N=CN(C)C)c1
Response: active

* * *

- System under test: Cytochrome P450 2C19 (Homo sapiens) (UniProt P33261)
- Sequence (P33261 whole entry, looked up): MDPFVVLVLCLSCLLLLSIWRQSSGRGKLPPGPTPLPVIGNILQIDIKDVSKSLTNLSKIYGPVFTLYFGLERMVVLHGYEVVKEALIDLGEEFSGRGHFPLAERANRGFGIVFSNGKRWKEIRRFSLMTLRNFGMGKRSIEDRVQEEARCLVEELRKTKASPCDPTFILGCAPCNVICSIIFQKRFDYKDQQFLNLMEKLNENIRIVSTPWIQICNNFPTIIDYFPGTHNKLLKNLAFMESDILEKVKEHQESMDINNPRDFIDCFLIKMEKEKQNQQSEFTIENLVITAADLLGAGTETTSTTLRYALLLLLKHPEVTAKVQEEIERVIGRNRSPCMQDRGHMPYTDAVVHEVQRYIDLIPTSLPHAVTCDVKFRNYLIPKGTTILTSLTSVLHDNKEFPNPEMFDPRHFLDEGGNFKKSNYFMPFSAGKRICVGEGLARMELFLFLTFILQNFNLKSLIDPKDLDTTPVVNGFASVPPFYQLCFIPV
- Experiment summary: Cytochrome P450 Family 2 Subfamily C Member 19 (CYP2C19) small molecule antagonists: luciferase reporter qHTS assay (AID 1671197); also: nearly all actives have a fitted effect of over 65% in size
- Experimental context: P450-Glo CYP2C19 enzyme, luciferin luminescence, 1 h; series mostly up to 115 µM
Results filed as inconclusive are left out. Activity calls are given as the source filed them. Calls follow the shape of the dose curve; as a rule, active = well fitted inhibition curve with a large enough effect in the repeat runs; inconclusive = weak or mixed curves; inactive = no such curve, though single readings can be large or run the other way.
Your answer must be one of the following: 1 (yes) (active), 0 (no) (inactive)

Compound	Answer label
C[N+]1(CCF)[C@@H]2CC[C@H]1CC(OC(=O)C(O)(c1ccccc1)c1ccccc1)C2 (stereo partly drawn)	0 (no)

Request: Give the logged outcome of this assay for the following compound: Cc1nc2ccccc2c(=O)n1-c1ccccc1Cl
Response: 1 (yes)

Request: Kindly provide the recorded test outcome for the following compound: CCc1ccccc1N
Response: 1 (yes)

Request: Recorded test call requested for Cc1ccccc1
Response: 0 (no)

* * *

- Experiment summary: qHTS assay to identify small molecule HDAC inhibitors (AID 1259364);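 also: wild-type HCT-116 cells with endogenous class I/II HDAC activity; top concentration of the series differs between compounds; % is scaled to controls: 0 for no effect and ±100 for the full control effect; nearly all actives have a fitted effect of over 45% in size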
- Experimental context: HCT-116 HDAC-Glo I/II luminescence, 2 h; series mostly up to 92.4 µM
Records with an inconclusive call do not appear. Calls of active or inactive are those of the source. Calls come from the whole dose curve; as a rule, active = well fitted inhibition curve with a large enough effect in the repeat runs; inconclusive = weak or mixed curves; inactive = flat fitted curve, though single readings scatter.
Can you answer with just one of these options? t = active, f = inactive

Compound	Answer label
Nc1ccccc1C(=O)OCC(O)CO (stereo not drawn)	f

Request: Fill in: this test's call for CN[C@@H](C)[C@H](O)c1ccccc1 is ___
Response: f

Request: Recorded test call requested for O=C(O)C(F)(F)C(F)(F)C(F)(F)C(F)(F)C(F)(F)F
Response: f

Request: // outcome(item) with item = CC(C)C1(C)N=C(c2ncccc2C(=O)O)NC1=O (stereo not drawn)
Response: f

Request: Please share the test call associated with O=C(Cl)OCCOCCOC(=O)Cl .
Response: f

Request: For this compound, state the assay outcome: C=CCOCC1CO1 (stereo not drawn)
Response: f

* * *

- Experiment summary: qHTS assay to identify small molecule agonists of H2AX (AID 1224845); also: % is scaled to controls: 0 for no effect and ±100 for the full control effect
- Experimental context: CHO-K1 phospho-H2AX Ser139 HTRF, 3 h; series mostly up to 154 µM
Inconclusive results are not listed. Activity calls are given as the source filed them. Calls come from the whole dose curve; as a rule, active = well fitted activation curve with a large enough effect in the signal ratio in the repeat runs (not every such curve was filed as active); inconclusive = weak or mixed curves; inactive = flat fitted curve, though single readings scatter; the % refers to the signal ratio.
Respond using exactly one of the listed classes: label 1 = active, label 0 = inactive

Compound	Answer label
O=C(Cc1ccccc1)OCCc1ccccc1	label 0

Request: Can you look up the reported call for CC(C)(C)OOC(C)(C)CCC(C)(C)OOC(C)(C)C for me?
Response: label 0

Request: Could you kindly confirm the outcome this assay logged for C[N+](C)(C)CCOC(=O)C(O)(c1ccccc1)c1ccccc1 ?
Response: label 0

Request: For FC(F)OC(F)(F)C(F)Cl (configuration not stated) , which call appears in the assay record?
Response: label 0

Request: Each compound tested received a call. Report the one for O=C(Cc1ccccc1)c1ccccc1 .
Response: label 0

Request: Answer briefly: the call reported for CCOP(=O)(SC(C)CC)N1CCSC1=O (configuration not stated) in this assay.
Response: label 0

* * *

- Experiment summary: qHTS RealTime-Glo MT Cell Viability Assay in HEK293 cells - 32 hour (AID 1224868); also: top concentration of the series differs between compounds; % is scaled to controls: 0 for no effect and ±100 for the full control effect; nearly all actives have a fitted effect of over 50% in size
- Experimental context: RealTime-Glo luminescence; series mostly up to 76.8 µM
Results filed as inconclusive are left out. Activity calls are given as the source filed them. Calls come from the whole dose curve; as a rule, active = well fitted cell-killing curve with a large enough effect in the repeat runs; inconclusive = weak or mixed curves, or effect the other way; inactive = flat fitted curve, though single readings scatter.
Your response should consist of one outcome taken from active, inactive

Compound	Answer label
CCCN(CCC)c1c([N+](=O)[O-])cc(C(C)C)cc1[N+](=O)[O-]	inactive

Request: Would you mind telling me which call this test gave CCCC1CCCCN1 (stereo not drawn) ?
Response: inactive

Request: Recorded test call requested for C[C@H](N)[C@H](O)c1ccc(O)c(O)c1
Response: inactive

Request: Each compound tested received a call. Report the one for NCCc1cc(O)c(O)cc1O .
Response: inactive

Request: Record request — test call for CC(C)c1ccc(NC(=O)N(C)C)cc1
Response: inactive

Request: Called result for O=C1NC(=O)C(=O)C(=O)N1
Response: inactive

Request: Recorded test call requested for CCCCOC(=O)CCC(=O)OCCCC
Response: inactive

Request: For O=C(Cc1ccccc1)c1ccccc1 , what call appears in the results of this test?
Response: inactive

Request: Per the assay record, what outcome was assigned to CCCCC#N ?
Response: inactive

* * *

- Experiment summary: qHTS assay to identify small molecule antagonists of the constitutive androstane receptor (CAR) signaling pathway - cell viability counter screen (AID 1224837); also: nearly all actives have a fitted effect of over 45% in size
- Experimental context: HepG2-CYP2B6-hCAR viability, CellTiter-Fluor, 23 h, co-treated with 50 nM CITCO; series mostly up to 92.4 µM
Inconclusive results are not listed. Active and inactive are the calls of the source. Calls come from the whole dose curve; as a rule, active = well fitted cell-killing curve with a large enough effect in the repeat runs; inconclusive = weak or mixed curves, or effect the other way; inactive = flat fitted curve, though single readings scatter.
Hi! Could you answer with just one of these? 1 (yes) (active), 0 (no) (inactive)

Compound	Answer label
C[C@]12C=CC3=C4CCC(=O)C=C4CC[C@H]3[C@@H]1CC[C@@H]2O	0 (no)
c1ccc2sc(SNC3CCCCC3)nc2c1	0 (no)
CCOc1cccc(C2(N3CCN(c4ccccc4)CC3)CCC(C)CC2)c1 (configuration not stated)	0 (no)
C[N+]1(CCC(C(N)=O)(c2ccccc2)c2ccccc2)CCCCC1	0 (no)
Nc1cccc2ccccc12	0 (no)

Request: Which result was noted for this compound in the test: CCOP(=O)(O)C(N)=O
Response: 0 (no)

Request: Look up the recorded call for CCCSP(=S)(OCC)Oc1ccc(SC)cc1 (configuration not stated) in this test.
Response: 0 (no)

Request: Each compound tested received a call. Report the one for CCC(=O)O[C@@H]1C=C2CCC3C(CCC4(C)C3CC[C@@H]4OC(=O)CC)C2CC1 (some centres not stated) .
Response: 0 (no)

Request: // param item: Clc1ccccc1 ; yields the recorded call
Response: 0 (no)

Request: Name the outcome recorded for C=CCc1ccccc1O in the assay.
Response: 0 (no)

Request: Please share the test call associated with OC[P+](CO)(CO)CO .
Response: 0 (no)

Request: Hello, I am checking results. What call was entered for CCCC[P+](CC)(CCCC)CCCC (tested in a mixture with another compound) ?
Response: 0 (no)

Request: Record request — test call for O=C(O)C(F)(F)C(F)(F)C(F)(F)C(F)(F)C(F)(F)C(F)(F)C(F)(F)C(F)(F)F
Response: 0 (no)

Request: Assay result, entry CN1CC[C@]23c4c5ccc(O)c4O[C@H]2[C@@H](O)C=C[C@H]3[C@H]1C5 — outcome?
Response: 0 (no)

Request: For Cc1nc2ccccc2c(=O)n1-c1ccccc1Cl , what call appears in the results of this test?
Response: 1 (yes)

Request: Kindly provide the recorded test outcome for the following compound: CC(C)(C#N)C(C)(C)C#N
Response: 0 (no)

Request: State the result this test recorded for CC(Cc1ccccc1)NCc1ccccc1Cl (configuration not stated) .
Response: 0 (no)

Request: Each compound tested received a call. Report the one for N#CC1(N=NC2(C#N)CCCCC2)CCCCC1 .
Response: 0 (no)

These data points were gathered from PubChem BioAssay (Tox21).
